# Experimental System: GST-YTHDC1 (345-509) protein (Homo sapiens)
# Construct: GST-YTHDC1 (345-509) protein
# Test Details: Fluorescence polarization-based in vitro enzyme-level test against YTHDC1
# Type: binding
# Settings: 30 nM GST-YTHDC1 (345-509), FAM-labeled m6A-modified single-stranded oligonucleotide, 18° C., 4 hours; read-out: IC50 (Inhibitory Activity against YTHDC1)
pIC50: −log10 of the molar value.
Readout: pIC50

Compound	pIC50
O=C(Nc1ccc(-c2cnco2)cc1)c1cc(C(=O)c2ccccc2N2CCCCC2)c[nH]1	7.85
O=C(Nc1ccc(-c2ccsc2)cc1)c1cc(C(=O)c2ccccc2C(F)(F)F)c[nH]1	7.19
O=C(Nc1ccc(-c2cncs2)cc1)c1cc2c(ncn2-c2ccccc2C(F)(F)F)[nH]1	6.74

(1) CN(C)CCOc1cc(NC(=O)c2cc(C(=O)c3ccccc3C(F)(F)F)c[nH]2)ccc1-c1cnco1 [Compound 101]
(2) O=C(Nc1ccc(-c2cnco2)cc1)c1cc(C(=O)c2ccccc2N2CCCCCCC2)c[nH]1
Query :: Among 1 and 2 , which shows a numerically higher pIC50 result? Give the label under which the chosen entry appears.
Result :: 1
